- study.system: isolated recombinant JAK1 kinase domain (Homo sapiens (Human), UniProt P23458)
- Sequence (P23458 875-1153): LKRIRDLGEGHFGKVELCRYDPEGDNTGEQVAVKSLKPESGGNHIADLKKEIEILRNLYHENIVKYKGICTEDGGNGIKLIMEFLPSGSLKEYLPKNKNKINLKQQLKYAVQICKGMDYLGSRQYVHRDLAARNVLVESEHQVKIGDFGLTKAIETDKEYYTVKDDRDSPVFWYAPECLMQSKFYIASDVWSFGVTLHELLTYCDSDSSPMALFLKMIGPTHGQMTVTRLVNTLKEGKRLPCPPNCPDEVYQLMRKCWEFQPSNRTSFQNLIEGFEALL
- assay.info: JAK1 enzyme assay (Caliper LabChip, Ki)
- Format: biochemical
- cond: read-out: JAK1 Ki
API: label(entry) gives Met if the entry's Ki is strictly smaller than 3 nM; on equality or larger values it gives Not met.

Example results:
COC(=O)Nc1nn(C2(CC#N)CCN(Cc3ccc(C4CC4)cc3)CC2F)cc1C(N)=O (stereo not drawn)	Met
N#CCC1(n2cc(C(N)=O)c(NC(=O)C3CC3(F)F)n2)CCN(CC(F)(F)F)CC1 (stereo not drawn)	Not met
COc1cc(CN2CCC(CC#N)(n3cc(C(N)=O)c(NC(=O)C4CC4)n3)CC2)ccc1-c1ccccc1	Not met
N#CCC1(n2cc(C(N)=O)c(NC(=O)C3CC3)n2)CCN(Cc2ccc3c(c2)[nH]c2ccccc23)CC1	Met
CCn1ccc(-c2ccc(CN3CCC(CC#N)(n4cc(C(N)=O)c(NC(=O)OC)n4)C(F)C3)cc2)n1 (stereo not drawn)	Met
COc1ccccc1CN1CCC(CC#N)(n2cc(C(N)=O)c(NC(=O)C3CC3)n2)CC1	Not met
COC(=O)Nc1nn(C2(CC#N)CCN(Cc3ccc(-c4csc(C)n4)cc3)CC2F)cc1C(N)=O (stereo not drawn)	Met
Cc1cc(CN2CCC(CC#N)(n3cc(C(N)=O)c(NC(=O)C4CC4)n3)CC2)ccc1-c1ccccc1	Not met

Q. Please check: Ki for "CS(=O)(=O)Nc1cccc(CN2CCC(CC#N)(n3cc(C(N)=O)c(NC(=O)C4CC4)n3)CC2)c1F" , strictly under 3 nM or not?
A. Met

Q. Please check: Ki for "CNC(=O)Nc1cn(C2(CC#N)CCN(CC(F)(F)F)CC2)nc1C(N)=O" , strictly under 3 nM or not?
A. Not met
